# System: ATP;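 note: ATP exposure 15 min at 22 °C before imaging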
# Procedure Summary: switch fluorescence ratio, 500 uM ATP over buffer (Cy3 cluster intensity, sum of 5 cycles each) (fold (ratio)); higher = stronger signal-on switching upon ATP binding; sequences stand for … in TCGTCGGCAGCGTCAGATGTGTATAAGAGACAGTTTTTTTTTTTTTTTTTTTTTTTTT…TC
# Experimental Parameters: aptamer strand: ATP DNA aptamer (quencher-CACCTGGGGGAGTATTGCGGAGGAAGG + anchor), 100 nM annealed; ATP concentration: 500 uM
Each entry gets Condition not met if its switch fluorescence ratio stays under 1, and Condition met if its switch fluorescence ratio is 1 or above.

Check the entry `CCTAGGGGTG` : does switch fluorescence ratio equal or exceed 1? Condition met

Try this sequence next: `TAATTTGTTT` Condition met

Lookup `ACAGCCTGCC` Condition met

And what about the sequence `TAGCTTTCGA` ? Condition met

Thanks! And `GGCACAGGGG` ? Condition met

Quick one: `ATTATGGAGG` Condition not met

Same read-out for `GGGTCAGGGG` ? Condition met

Next up: `TAATGGATGG` Condition not met

Same for `TTGATGGATG` Condition met

Record: `ATTTACCAGG` Condition met

Can you handle `GGTGGGTTTG` next? Condition met

What do you get for `ACGTCTTACT` ? Condition met

Queued: `CTGTTGGGAA` Condition met

Please give the result for `TTATAAAAGG` too. Condition met

Proceed to `CCAGCTACGG` Condition met

Next: `GGACACTACC` Condition met

Same again, this time with `TCATACCGTA` Condition met

Another sequence to check: `TTGTAGATGC` Condition met

Proceed to `GCTGATGGGC` Condition met

Try this sequence next: `TACCCTTGCC` Condition met

Likewise for `CACTGGGGTG` ? Condition met

// repeat for `TCGGTTAGT` and report Condition not met

How about this sequence: `AACAGTAGCA` Condition met

Another sequence: `TTGGGGGCGA` Condition met

Queued: `AATTTGGCGT` Condition not met

Same question, `ACGCTGGTGT` this time Condition met

Same question, `AAGGTAGGCC` this time Condition not met

Please answer likewise for `CGGCAGGTAA` Condition met

Follow-up item: `TCAATTTCAC` Condition met

###

# Tested on: ATP;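 note: ATP exposure 15 min at 22 °C before imaging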
# Procedure Summary: switch fluorescence ratio, 500 uM ATP over buffer (Cy3 cluster intensity, sum of 5 cycles each) (fold (ratio)); higher = stronger signal-on switching upon ATP binding; sequences stand for … in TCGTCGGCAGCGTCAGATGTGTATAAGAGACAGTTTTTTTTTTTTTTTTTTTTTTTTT…TC
# Experimental Parameters: aptamer strand: ATP DNA aptamer (quencher-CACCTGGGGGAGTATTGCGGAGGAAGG + anchor), 100 nM annealed; ATP concentration: 500 uM
Exercise: state measured switch fluorescence ratio for each of the sequences provided.
Write no unit; give the number alone.

# input sequence: `TCGATGAGGG` ; wanted: its switch fluorescence ratio 1.02

Also `TGGGGTTTCC` , if possible. 1.16

// next record `AAAGTTGCAG` 1.02

Next sequence up: `AAAGGTAGAG` 1.01

Repeat with `TTAGACGCGG` 0.98

How about `TCTTAGTTTG` ? 0.986

Same read-out for `TATTAAAAGA` ? 0.99

Same thing, different sequence: `AAGAGGGTGG` 0.997

Here is the next sequence: `GGGGAGCTAC` 1.17

Try this sequence too: `CGGGGTCGCC` 0.984

###

# System: ATP;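 note: ATP exposure 15 min at 22 °C before imaging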
# Procedure Summary: switch fluorescence ratio, 500 uM ATP over buffer (Cy3 cluster intensity, sum of 5 cycles each) (fold (ratio)); higher = stronger signal-on switching upon ATP binding; sequences stand for … in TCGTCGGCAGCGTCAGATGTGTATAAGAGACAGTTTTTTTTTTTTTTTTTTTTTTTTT…TC
# Experimental Parameters: aptamer strand: ATP DNA aptamer (quencher-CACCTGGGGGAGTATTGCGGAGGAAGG + anchor), 100 nM annealed; ATP concentration: 500 uM
Measurement Label: switch fluorescence ratio
Number only, please.

What does the record list as switch fluorescence ratio for `AGTGTTCGCG` ? 1

Then this sequence: `GCTGGGGAAG` 1.02

Also `TGAATGGGTA` , if possible. 0.983

Moving on to `AACCGAAGAC` 2.15

Same thing, different sequence: `GGATTGGTTG` 0.999

Could you do the same for `TCATAGATCG` , please? 1.01

Try the sequence `GGGCAAAGTA` 0.924

Could you do the same for `AGGTTCATTG` , please? 0.975

Now the sequence `AAACTGTTTC` 1.02

// repeat for `CTGTGGGCGC` and report 1.01

// next record `TGAATATGCG` 0.988

Here is the next sequence: `CTTTGTATGT` 0.982

Ok, now `TGGGTAATTG` 1.01

Now the same for `AATCAAGTCT` 0.999

Now this one: `TAAAATGCGT` 1

Please answer likewise for `TACGTATGAA` 1.17

Can you handle `TATACGGAAT` next? 1.16

Also need `TAAATTATTT` , thanks. 0.999

Another sequence to check: `TCAAGGGTTA` 1.02

`TGGGACCCCC` ? 1.34

###

# Tested on: ATP;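 note: ATP exposure 15 min at 22 °C before imaging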
# Procedure Summary: switch fluorescence ratio, 500 uM ATP over buffer (Cy3 cluster intensity, sum of 5 cycles each) (fold (ratio)); higher = stronger signal-on switching upon ATP binding; sequences stand for … in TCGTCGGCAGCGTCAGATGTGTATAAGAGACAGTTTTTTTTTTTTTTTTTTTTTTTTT…TC
# Experimental Parameters: aptamer strand: ATP DNA aptamer (quencher-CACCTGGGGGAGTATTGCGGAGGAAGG + anchor), 100 nM annealed; ATP concentration: 500 uM
Measurement Label: switch fluorescence ratio
Please reply with the number alone, leaving off any unit.

Request body: readout switch fluorescence ratio, system ATP, query `TAAGGTCCGA` . Return the value. 1.02

Also, `ACAGGGGGCC` please. 1.08

Repeat for the following sequence: `TTTCTTTT` 1.04

Okay, and `TTGACACTCG` ? 0.98

Param item: `TTTAGGACGT` 0.999

Record: `ATGGAAGAGG` 0.982

Okay, and `AAATGCTTG` ? 0.983

Do the same for `TCCACGGGG` please 1.12

Next up: `AAGGTTATTG` 1.03

Another sequence to look at: `GAGAGAGGCT` 0.999

Field entry: `GCGAACTTGG` 0.977

How about `ACTGGTTTTT` ? 0.987

Input `TAGGTATATT` 0.97

Would you mind doing `GGGTATAATA` as well? 1.01

Further, for `GGTCCGTCGT` ? 1.02

Please answer likewise for `GGGGATGAGG` 0.97

Same question, `GGGTGTGTTT` this time 0.985

Entry to check: `TGTGAATTCG` 1.01

Moving on to the next sequence: `TCGCTCGCAT` 3.68

Please answer likewise for `TTTGTGGACG` 1.08

Please give the result for `TGCTAATCTG` too. 0.958

###

# Tested on: ATP;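 note: ATP exposure 15 min at 22 °C before imaging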
# Procedure Summary: switch fluorescence ratio, 500 uM ATP over buffer (Cy3 cluster intensity, sum of 5 cycles each) (fold (ratio)); higher = stronger signal-on switching upon ATP binding; sequences stand for … in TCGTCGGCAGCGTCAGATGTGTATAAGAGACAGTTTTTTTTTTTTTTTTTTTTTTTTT…TC
# Experimental Parameters: aptamer strand: ATP DNA aptamer (quencher-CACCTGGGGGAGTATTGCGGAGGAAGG + anchor), 100 nM annealed; ATP concentration: 500 uM
Give switch fluorescence ratio for every item shown.
// no unit, no text: just the number

GET /values?readout=switch fluorescence ratio&item= `ATTGTTGGTT` 0.974

Now consider `TAATGTTTTG` and answer again. 1.01

# repeat for `TATAGGTTTT` 1

Repeat with `TATTTTGGAA` 0.986

Same for `ATACGAATTC` 1.01

# repeat for `AGGGTCAATG` 0.983

Further, for `TTCAGGAGTG` ? 0.993

Next up: `ATTTGTGTGT` 0.967

Repeat with `ATCGGGGTAG` 0.998

Check `TTACCCATGG` too. 0.937

Proceed to `TTGATGTTGG` 0.992

# iterate: `GGTATTACGT` 0.972

What would you report for `GAAGTACCTT` ? 1.2

Same for `GCTGTAGGTC` 1.04

Next record, please: `GAGAAAGTTC` 1.06

Now consider `GGTGATATGT` . 0.997

Moving on to the next sequence: `AAGATTAGGT` 1

`ATTGGACTAC` , same question. 1.07

Next record, please: `ATTTTAGGCA` 0.996

Try this sequence next: `GAATGGGAGG` 0.975
